Reported values of displacement for individual entries
- Assayed target: Heat shock 70 kDa protein 1A (Homo sapiens) (UniProt P0DMV8)
- Sequence (P0DMV8 whole entry, looked up): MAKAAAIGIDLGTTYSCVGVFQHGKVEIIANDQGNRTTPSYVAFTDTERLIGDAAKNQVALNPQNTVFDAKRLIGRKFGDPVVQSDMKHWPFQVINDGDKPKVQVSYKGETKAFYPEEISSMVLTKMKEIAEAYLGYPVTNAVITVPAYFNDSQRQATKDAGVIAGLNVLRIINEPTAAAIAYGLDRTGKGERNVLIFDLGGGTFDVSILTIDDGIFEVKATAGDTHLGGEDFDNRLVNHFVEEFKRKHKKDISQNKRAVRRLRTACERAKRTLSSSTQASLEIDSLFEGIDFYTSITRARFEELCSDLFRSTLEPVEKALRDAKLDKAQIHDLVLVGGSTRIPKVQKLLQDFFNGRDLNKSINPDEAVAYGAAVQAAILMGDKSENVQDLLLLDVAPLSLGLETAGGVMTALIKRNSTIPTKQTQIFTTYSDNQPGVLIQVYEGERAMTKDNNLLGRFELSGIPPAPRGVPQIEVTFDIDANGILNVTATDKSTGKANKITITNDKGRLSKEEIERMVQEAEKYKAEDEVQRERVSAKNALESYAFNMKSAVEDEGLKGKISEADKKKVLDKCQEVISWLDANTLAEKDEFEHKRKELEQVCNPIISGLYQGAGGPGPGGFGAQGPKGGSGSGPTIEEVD
- Method description: Hsp70 inhibitors, probe displacement, primary screen, biochemical, fluorescence polarization (AID 583);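 further: plate controls were vehicle for no effect and reference ligand for full effect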
- Reported conditions: mP, at 20 µM, hits give high values
The whole screen tested about 140,000 compounds, of which about 80 (0.06%) were called active. The sample as a whole holds a higher share of actives than the screen did.
// note: answer is a bare numeric in %

Recorded displacement, per entry:
Cc1ccc2c(c1)C1C=CCC1C(C(=O)O)N2 (configuration not stated) ... 38.6
Cc1ccccc1-n1c(O)c(C=C2C=CC=N2)c(=O)[nH]c1=S ... 44.3

According to the records, this compound O=C(NC1CC2CCCC(C1)N2C(=O)NC1CCCCC1)c1ccccc1 (configuration not stated) displays displacement of 0.4

According to the records, this compound CCN1C(=O)/C(=C\c2ccc(OCc3ccccc3Cl)cc2)SC1=S displays displacement of -2.5

* * *

- Assayed target: Heat shock 70 kDa protein 1A (Homo sapiens)
- Method description: Hsp70 inhibitors, probe displacement, primary screen, biochemical, fluorescence polarization (AID 583);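 further: plate controls were vehicle for no effect and reference ligand for full effect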
- Reported conditions: mP, at 20 µM, hits give high values
The campaign covered roughly 140,000 compounds. About 80 (0.06%) were called active. Only a selection was taken, and actives are over-represented in it overall.
Measured quantity: displacement

Cc1ccc(N=C2NC(=O)/C(=C/c3ccc(O)c([N+](=O)[O-])c3)S2)cc1Cl ... 66.9% (active)
N#CCOc1ccccc1/C=N/c1sc2c(c1C#N)CCCC2 ... -0.5% (inactive)
Cc1ccc([N+](=O)[O-])cc1-c1ccc(/C=C(\C#N)C(=O)NCc2ccco2)o1 ... 75.7% (active)
Cc1ccc(C)n1-c1cc(C(=O)O)ccc1Cl ... 89.5% (active)
Cc1cc(N2C(=O)NC(=O)/C(=C\c3ccco3)C2=O)ccc1Br ... 40.3% (inactive)
Cc1c(O)ccc2c1oc(=O)c1ccccc12 ... 2.3% (inactive)
S=c1[nH]nc(-c2cccc(Cl)c2)n1-c1ccccc1 ... 4% (inactive)
COCCOC(=O)c1ccc(NC(=O)COc2ccc(C)c(C)c2)cc1 ... 86.3% (active)
Cc1c(Cl)cccc1N=C1NC(=O)/C(=C/c2ccc(O)c([N+](=O)[O-])c2)S1 ... 13.2% (inactive)
N#C/C(=C\c1ccc(-c2cccc(Cl)c2Cl)o1)C(=O)NCc1ccco1 ... -2.5% (inactive)

According to the records, this molecule COCCOC(=O)c1ccc(NC(=O)COc2ccc(C)cc2)cc1 displays displacement of 3.9% (inactive)

* * *

- Assayed target: Heat shock 70 kDa protein 1A (Homo sapiens) (UniProt P0DMV8)
- Method description: Hsp70 inhibitors, probe displacement, primary screen, biochemical, fluorescence polarization (AID 583);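 further: plate controls were vehicle for no effect and reference ligand for full effect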
- Reported conditions: mP, at 20 µM
Among all 140,000 compounds or so, about 80 (0.06%) were called active. No stated cut-off is given here; in the data, active means displacement above about 50%; inactive means the rest. This excerpt belongs to a sample that is enriched for actives.
Give one outcome, nothing more. List: active, inactive

CCN(CC)S(=O)(=O)c1ccc2oc(Nc3ccc4c(c3)OCCO4)nc2c1 ... inactive
Cn1c(O)c(/C=C2/C=CC=N2)c(=O)n(-c2ccccc2)c1=S ... active

Now for a further compound.
Query string: Hey, what did the test say about Cc1c(NC(=O)c2ccccc2[N+](=O)[O-])cccc1-c1nc2cc(Cl)ccc2o1 ?
Result string: active
